# Test system: SKOV3
# ASSAY_TEXT: Primary qHTS to identify gynecologic anti-cancer compounds using libraries of approved drugs and bioactive compounds (AID 1345084); further: nearly all actives have a fitted effect of over 55% in size
# CONDITIONS: Gynecologic cancer cell panel viability, ATPlite luminescence, 48 h; series mostly up to 57.5 µM
Records with an inconclusive call do not appear. Calls of active or inactive are those of the source. The call rests on the fitted dose curve; in most records, active means well fitted cell-killing curve with a large enough effect; inconclusive means small, poorly fitted or top-dose-only effect, or effect the other way; inactive means flat fitted curve, though single readings scatter.
Parameter call: string, one of 1 (yes) = active, 0 (no) = inactive

MOLECULE	ASSIGNED_CATEGORY
CCOC(=O)C1=C(C)NC2=C(C(=O)CC(C)(C)C2)C1c1ccc(-c2ccccc2)cc1 (centres undefined)	1 (yes)

Data request: So what was the verdict on COc1cc(C(=O)NS(=O)(=O)c2ccccc2C)ccc1Cc1cn(C)c2ccc(NC(=O)OC3CCCC3)cc12 in this test?
Data returned: 0 (no)

Data request: Per the records of this test, what outcome belongs to Cc1ccc(C(=O)Nc2ccc(CN3CCN(C)CC3)c(C(F)(F)F)c2)cc1C#Cc1cnc2cccnn12 ?
Data returned: 1 (yes)

Data request: Hello, I am checking results. What call was entered for COc1ccc(-c2cc3c(C)nc(N)nc3n(C3CCC(OCCO)CC3)c2=O)cn1 (centres undefined) ?
Data returned: 1 (yes)

Data request: # lookup: test call for Clc1cccc(-n2nnnc2NCc2ccccc2Oc2ccccn2)c1Cl
Data returned: 0 (no)

Data request: Answer briefly: the call reported for N#Cc1c(O)c2c(-c3ccc(-c4ccccc4O)cc3)csc2[nH]c1=O in this assay.
Data returned: 0 (no)
